As shown below, each of these sequences has a reported PBM binding z-score value.
- Test system: THRa:RXRa (NR concentration 90 nM, RXRa partner concentration 90 nM)
- Assay details: PBM binding z-score (relative to random genomic background probes); higher = stronger binding; sequences stand for … in GC…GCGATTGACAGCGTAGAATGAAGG
Quantity measured: PBM binding z-score

[
  {
    "Entry sequence": "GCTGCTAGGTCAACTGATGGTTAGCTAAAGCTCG",
    "Test value": 2.94
  },
  {
    "Entry sequence": "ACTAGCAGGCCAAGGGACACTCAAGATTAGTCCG",
    "Test value": -0.112
  },
  {
    "Entry sequence": "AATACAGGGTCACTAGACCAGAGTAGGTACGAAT",
    "Test value": 3.24
  },
  {
    "Entry sequence": "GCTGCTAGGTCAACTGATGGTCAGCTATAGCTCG",
    "Test value": 3.03
  }
]

Data credit: the supplement of paper PMC6555819
